# test_method_notes: Volatilization from halogen bulb; purity of the aerosol by reverse-phase HPLC
# Type: physicochemical
# condition_label: thermal vapor from coated aluminum foil on 300 watt halogen tube, 60 V 5-12 s or 90 V 2.5-3.5 s; HPLC at 225 nm
measure_name: AEROSOL PURITY

Past entries and their recorded results:
I have this compound here, COC(=O)Cc1c(C)n(C(=O)c2ccc(Cl)cc2)c2ccc(OC)cc12 [Indomethacin Methyl Ester] , and I need its recorded AEROSOL PURITY.
99%

Entry COC(=O)C(C)c1cccc(C(=O)c2ccccc2)c1 (stereo not drawn) [Ketoprofen Methyl Ester] : reported AEROSOL PURITY = ?
99%

Any idea what its AEROSOL PURITY is? The compound is COC(=O)C1CCn2c(C(=O)c3ccccc3)ccc21 (stereo not drawn) [Ketorolac Methyl Ester]
100%

What value of measured AEROSOL PURITY is listed for CCOC(=O)Cc1c(C)n(C(=O)c2ccc(Cl)cc2)c2ccc(OC)cc12 [Indomethacin Ethyl Ester] ?
>99%

For the compound shown here, COc1ccc2c(c1)c(CC(=O)OCCN(C)C)c(C)n2C(=O)c1ccc(Cl)cc1 [Indomethacin Norcholine Ester] , give the reported AEROSOL PURITY.
100%

Please find the next compound below.
Reported AEROSOL PURITY, compound CCOC(=O)C1CCn2c(C(=O)c3ccccc3)ccc21 (stereo not drawn) [Ketorolac Ethyl Ester] : ____
>99%

---

# maps each entry to its AEROSOL PURITY
# test_method_notes: Volatilization from halogen bulb; purity of the aerosol by reverse-phase HPLC
# Assay type: physicochemical
# condition_label: thermal vapor from coated aluminum foil on 300 watt halogen tube, 60 V 5-12 s or 90 V 2.5-3.5 s; HPLC at 225 nm
Note to self: number, then unit, no commentary.

Here is how some molecules turned out for AEROSOL PURITY.
Field request: AEROSOL PURITY | item: CCOC(=O)C(C)c1cccc(C(=O)c2ccccc2)c1 (stereo not shown)
99.65%

Item under review: CC(=O)Oc1ccc2c(c1OC(C)=O)-c1cccc3c1C(C2)N(C)CC3.Cl (stereo not shown) [Apomorphine Diacetate-HCl] . Reported AEROSOL PURITY?
94%

Data request, read-out AEROSOL PURITY, for CC(C(=O)OCCN(C)C)c1cccc(C(=O)c2ccccc2)c1 (stereo not shown)
100%

Consider the additional molecule presented here.
Record request: AEROSOL PURITY value, item CN(C)CCOC(=O)C1CCn2c(C(=O)c3ccccc3)ccc21 (stereo not shown)
100%

---

# test_method_notes: Human serum hydrolysis studies of drug esters
# Type: in vitro ADME
# condition_label: 37° C., read-out: t1/2 for hydrolysis
measure_name: half-life at 1 mM (h)
Response body: numeric value in h, unit text excluded.

Query: half-life at 1 mM; subject: CCOC(=O)C(C)c1cccc(C(=O)c2ccccc2)c1 (centres unmarked)
3.73

Next:
Look up half-life at 1 mM for this compound: COC(=O)C(C)c1cccc(C(=O)c2ccccc2)c1 (centres unmarked)
2.4
